Please go through the items and note down their composite z-score.
Assay: small-molecule binders of probe aInhba, primary screen, biochemical, small-molecule microarray, 635/667 nm fluorescence (AID 1148);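 also: score merges 667nm spot fluorescence with signal-to-noise for antibody binding to printed compounds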
Conditions: higher = more signal

Input "Cc1ccc(S[C@]2(C(=O)NCCCN(C)C)CC(=O)N(Cc3cc(C(F)(F)F)cc(C(F)(F)F)c3)[C@@H]2c2ccc(CO)cc2)cc1" . Output composite z-score: 0.0363

Input CN1C(=O)C2C=CC(C(O)c3ccc([N+](=O)[O-])cc3)N(N3CCCCC3)C2C1=O (stereo not drawn) . Output composite z-score: 0.464

Input COc1ccc(C(O)C2C=CC3C(=O)N(Cc4ccccc4)C(=O)C3N2n2cnnc2)cc1OCc1ccccc1 (stereo not drawn) . Output composite z-score: -0.0962

Input "C=C(COC)C(=O)CC[C@@H](OC(C)=O)c1ccc(CO)o1" . Output composite z-score: 0.138

Input "COc1ccc([Si](C)(C)[C@@H]2[C@@H](CCO)O[C@]3(C(=O)N(Cc4ccc(N(C=O)c5ccccc5)cc4)c4ccccc43)[C@H]2C)cc1" . Output composite z-score: 0.106

Input CC1CC/C=C\[C@H]2OC34C=CCN(Cc5ccccc5)C(=O)[C@H]3N(CCCO)C(=O)[C@@H]4C2C(=O)O1 (stereo partly drawn) . Output composite z-score: -0.206

Input "COC(=O)[C@@]1(Cc2ccccc2)N=C(c2ccc(OCCCO)cc2)O[C@H]1c1ccccc1" . Output composite z-score: 0.0816

Input "C=C(CCCC)/C(=C/C[C@@H](OC(=O)c1ccncc1)c1ccc(OCCO)cc1)c1cc(C(=O)OC)ccc1OC" . Output composite z-score: -0.128
